# test-method-notes: Dissociation constant, pKa of the compound
# Format: physicochemical
property-name: pKa

Brc1ccc2c(c1)c1c3n2CCN(Cc2ccccc2)C3CCC1 (centres undefined) : 6.95

[A] Nc1c(S(=O)(=O)c2ccccc2)sc2nc(-c3ccccc3)cc(-c3ccccc3)c12
[B] O=S(=O)(Nc1cc(Sc2cccc3cccnc23)c(O)c2ccccc12)c1ccccc1
[C] O=S(=O)(Nc1ccccc1-c1nccc2ccccc12)c1ccc(Cl)cc1
Please list these in order of increasing pKa. Thank you! Would you mind listing the labels in the order requested?
A, B, C
(A: -0.69, B: 3.48, C: 5.3)

====

# test-method-notes: Dissociation constant, pKa of the compound
# Assay type: physicochemical
property-name: pKa

Cc1ccc(Cl)cc1N(C)C(=O)c1cn(-c2ccc(F)cc2F)c(=O)c2ccccc12 : -1.07

[A] COc1cccc(-n2cc(C(=O)N(C)c3cccc(Cl)c3)c3ccccc3c2=O)c1
[B] O=S(=O)(Nc1cc2c(c3ccccc13)OC1(N3CCOCC3)CCCCC21)c1ccccc1 (stereo not given)
[C] O=S(=O)(Nc1ccn(Cc2cccc3ccccc23)n1)c1ccc(Br)s1
[D] NC(=O)C1CCN(c2c(S(=O)(=O)c3ccccc3)cnc3ccc(Cl)cc23)CC1
Output the entries ranked by pKa from maximum down to minimum. Field: ranking. Enter the labels in the order requested.
B, D, C, A
